Values compiled from PubChem BioAssay.

Please go through the items and note down their composite z-score.
# assaySystem: Focal adhesion kinase 1 (Homo sapiens) (UniProt Q05397)
# Sequence (Q05397 whole entry, looked up): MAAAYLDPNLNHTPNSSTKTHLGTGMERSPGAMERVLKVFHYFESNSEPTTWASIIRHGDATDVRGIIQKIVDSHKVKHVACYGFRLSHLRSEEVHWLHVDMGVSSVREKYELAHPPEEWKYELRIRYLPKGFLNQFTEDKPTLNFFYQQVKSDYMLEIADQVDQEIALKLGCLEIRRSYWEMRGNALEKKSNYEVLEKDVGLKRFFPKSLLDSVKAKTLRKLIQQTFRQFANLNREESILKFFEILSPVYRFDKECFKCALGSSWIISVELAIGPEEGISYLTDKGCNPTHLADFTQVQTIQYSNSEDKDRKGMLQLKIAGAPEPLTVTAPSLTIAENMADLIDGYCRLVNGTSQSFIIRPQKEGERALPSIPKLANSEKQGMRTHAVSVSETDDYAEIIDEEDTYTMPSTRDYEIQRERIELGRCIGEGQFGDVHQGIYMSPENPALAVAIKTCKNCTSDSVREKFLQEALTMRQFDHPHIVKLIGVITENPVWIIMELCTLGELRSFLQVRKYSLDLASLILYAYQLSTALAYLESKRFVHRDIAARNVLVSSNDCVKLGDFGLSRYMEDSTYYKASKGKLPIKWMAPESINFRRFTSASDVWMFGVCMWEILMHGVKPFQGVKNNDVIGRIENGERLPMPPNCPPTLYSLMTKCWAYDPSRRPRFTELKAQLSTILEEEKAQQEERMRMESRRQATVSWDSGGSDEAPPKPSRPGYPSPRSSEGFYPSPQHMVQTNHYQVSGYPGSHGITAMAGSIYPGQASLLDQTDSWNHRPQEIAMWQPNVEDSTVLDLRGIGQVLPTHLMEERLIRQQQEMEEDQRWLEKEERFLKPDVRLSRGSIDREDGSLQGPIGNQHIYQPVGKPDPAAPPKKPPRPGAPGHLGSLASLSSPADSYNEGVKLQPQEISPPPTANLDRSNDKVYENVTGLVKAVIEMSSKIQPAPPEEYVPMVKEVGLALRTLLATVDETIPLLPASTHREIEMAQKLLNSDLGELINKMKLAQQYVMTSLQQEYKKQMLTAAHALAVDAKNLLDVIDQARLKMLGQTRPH
# assayName: small-molecule microarray binders of FAK, primary screen, biochemical, 635/667 nm fluorescence, BSA, DTT (AID 1130);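 also: composite of spot emission at 667 nm and signal to noise over triplicate slides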
# conditions: PTK2 binding, 635 nm fluorescence, higher = more signal
Please reply with the number alone, leaving off any unit.

Field composite z-score (entry COC(=O)C1=CC(CCCO)=CC(c2ccc(CN3CCCC3)cc2)N(Cc2sc3ccccc3c2Cl)C=C1C(=O)OC (configuration not stated) ) reads 0.579

Field composite z-score (entry COCCOC(=O)N1C(=O)[C@@]2(c3cc(C#Cc4ccc(OC)cc4)ccc31)[C@H](C(=O)Nc1nc3ccccc3s1)[C@H]1C(=O)O[C@H](c3ccccc3)[C@H](c3ccccc3)N1[C@@H]2c1ccccc1OCCO ) reads 0.0699

Field composite z-score (entry COCCOC(=O)N1C(=O)[C@@]2(c3cc(C#CCCO)ccc31)[C@H](c1ccccc1OCCO)N1[C@H](c3ccccc3)[C@H](c3ccccc3)OC(=O)[C@H]1[C@@H]2C(=O)N1CCc2cc(OC)c(OC)cc2C1 ) reads 0.405

Field composite z-score (entry CCCC[C@H]1OB(O)C[C@H]2C1=C(C)C[C@H]1C(=O)C=CC(=O)[C@H]12 ) reads -0.244

Field composite z-score (entry CCc1cccc(NC(=O)O[C@H]2[C@H](OC(=O)Nc3ccc4c(c3)OCO4)[C@H](OC(=O)Nc3ccc4c(c3)OCO4)[C@@H](OC)O[C@@H]2CO)c1 ) reads -0.164

Field composite z-score (entry O=C1C2C=CC(C(O)C(c3ccccc3)c3ccccc3)N(Nc3ccccc3)C2C(=O)N1c1ccccc1 (configuration not stated) ) reads 0.175

Field composite z-score (entry C=CCC(OC(C)=O)[C@@H]1[C@@H](N(Cc2cccc3ccccc23)C(=O)c2cccc3ccccc23)c2cc(OCCCO)ccc2N1C(=O)Cc1ccc2ccccc2c1 (some centres not stated) ) reads 0.119

Field composite z-score (entry CN(C)CCCC[C@@H]1NC(=O)[C@H]2C[C@@H](C(=O)O)[C@@H](c3cccc(OCCO)c3)N2C1=O ) reads 0.239

Field composite z-score (entry C=CCC(OC(C)=O)[C@@H]1[C@@H](N(Cc2ccc(-c3cccc(C(F)(F)F)c3)o2)C(=O)c2cccc3ccccc23)c2cc(OCCCO)ccc2N1C(=O)c1ccc2ccccc2n1 (some centres not stated) ) reads -0.323

Field composite z-score (entry COc1ccc([Si](C)(C)[C@@H]2[C@@H](CCO)O[C@]3(C(=O)N(Cc4ccccc4)c4ccc(N5C(=O)c6ccccc6Oc6ccccc65)cc43)[C@H]2C)cc1 ) reads 0.0875

Field composite z-score (entry N[C@@H](Cc1ccccc1)Cn1cc(C2(O)CCCCC2)nn1 ) reads 0.0655

Field composite z-score (entry CC1(C)OC[C@@]23C=C(Br)[C@@H](C[C@H]12)[C@@]1(CO1)C3=O ) reads 0.139

Field composite z-score (entry [N-]=[N+]=NCc1ccccc1C[C@@]1(C(=O)O)N=C(c2ccc(OCCCO)cc2)O[C@@H]1c1ccccc1CN=[N+]=[N-] ) reads -0.0333

Field composite z-score (entry NC(=O)NCC#Cc1ccc2c(c1)[C@]1(C(=O)N2)[C@H](C(=O)N2CCCCCCC2)[C@H]2C(=O)O[C@H](c3ccccc3)[C@H](c3ccccc3)N2[C@@H]1c1ccc(O)cc1 ) reads 0.568

Field composite z-score (entry Cc1ccc(S(=O)(=O)N2[C@@H](c3ccccc3)C(C(=O)O)=CC[C@H]2c2ccc(C#N)cc2)cc1 ) reads 0.447

Field composite z-score (entry COc1ccccc1CN1C(=O)c2ccccc2[C@@H](C(=O)NCCCN(C)C)[C@@H]1c1ccc(CO)cc1 ) reads -0.492

Field composite z-score (entry CN(C)C(=O)[C@]1(Cc2ccccc2)N=C(c2ccc(OCCCO)cc2)O[C@@H]1c1ccccc1 ) reads 0.593

Field composite z-score (entry CC(=O)n1cc(C(O)C2C=CC3C(=O)N(c4ccccc4)C(=O)C3N2Nc2ccccc2F)c2ccccc21 (configuration not stated) ) reads 0.251

Field composite z-score (entry Cc1ccc(F)cc1S(=O)(=O)N[C@@H]1CCN(Cc2ccc3[nH]ccc3c2)C1 ) reads -0.105

Field composite z-score (entry C=CCOC(=O)[C@H]1[C@@H]2C(=O)O[C@@H](c3ccccc3)[C@@H](c3ccccc3)N2[C@@H](c2ccc(OCCOC(=O)[C@@H]3C[C@@H]4C(=O)N[C@@H](CC(C)C)C(=O)N4[C@@H]3c3ccc(O)cc3)cc2)[C@]12C(=O)Nc1ccc(I)cc12 ) reads 0.443

Field composite z-score (entry COCCOC(=O)N1C(=O)[C@@]2(c3cc(C#CC4(O)CCCCCC4)ccc31)[C@H](c1ccccc1OCCO)N1[C@H](c3ccccc3)[C@H](c3ccccc3)OC(=O)[C@H]1[C@@H]2C(=O)N1CCCCCCC1 ) reads 0.504

Field composite z-score (entry C#CCN([C@H](/C=C/C1CC1)[C@@H](O)Cc1ccccc1)[C@@H](Cc1ccccc1)C(=O)OC ) reads -0.113

Field composite z-score (entry CC(C)C[C@H]1NC(=O)[C@@]23C(=O)N[C@@H](Cc4ccccc4)C2[C@H](C)[C@@]2(C)O[C@H]2C3/C=C/C/C=C\CNC(=O)[C@@H]2CCCN2C1=O (some centres not stated) ) reads -0.171

Field composite z-score (entry O=C1C2C=CC(C(O)c3cccs3)N(Nc3ccccc3)C2C(=O)N1c1ccccc1 (configuration not stated) ) reads 0.948

Field composite z-score (entry COc1cc2c(cc1O)C(C1CC1)N(Cc1ccc([N+](=O)[O-])o1)CC2 (configuration not stated) ) reads 0.325

Field composite z-score (entry COCCOC(=O)N1C(=O)[C@@]2(c3cc(C#CCNC(N)=O)ccc31)[C@H](C(=O)NC[C@H](O)c1ccccc1)[C@H]1C(=O)O[C@H](c3ccccc3)[C@H](c3ccccc3)N1[C@@H]2c1ccc(OCCO)cc1 ) reads 0.707

Field composite z-score (entry C=C(CCCC)C(=O)CC[C@H](OC(=O)c1cccnc1)c1ccc(CO)o1 ) reads -0.188

* * *

# assayName: small-molecule microarray binders of probe aLefty2, primary screen, biochemical, biotinylated probe, 635/667 nm fluorescence (AID 1094);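 also: score merges spot fluorescence near 667 nm with spot signal-to-noise ratio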
# conditions: higher = more signal
Kindly note that classification relies on composite z-score with these boundaries: lower range = under -0.1, middle range = from -0.1 up to 0.1, upper range = 0.1 and over

State the class of the compound shown: N#Cc1ccc(C(O)C2C=CC3C(=O)N(c4ccccc4)C(=O)C3N2Nc2ccc([N+](=O)[O-])cc2)cc1 (centres undefined)
middle range

State the class of the compound shown: CC1CC/C=C\[C@H]2OC34C=CCN(CCN5CCOCC5)C(=O)[C@H]3N(CCCCCCO)C(=O)[C@@H]4C2C(=O)O1 (some centres undefined)
lower range

State the class of the compound shown: COCCOC(=O)N1C(=O)[C@@]2(c3cc(C#CCCO)ccc31)[C@H](C(=O)N1CCN(c3ncccn3)CC1)[C@H]1C(=O)O[C@H](c3ccccc3)[C@H](c3ccccc3)N1[C@@H]2c1ccc(O)cc1
lower range

State the class of the compound shown: O=C1O[C@@H](c2ccccc2)[C@@H](c2ccccc2)N2[C@@H](c3ccc(OCCO)cc3)[C@]3(C(=O)Nc4ccc(C#CCCO)cc43)[C@@H](C(=O)Nc3nc4ccccc4s3)[C@H]12
middle range

State the class of the compound shown: CCCCC(=C=CC[C@@H](O)c1cccc(OCCO)c1)CCO
lower range

State the class of the compound shown: COc1ccc([Si](C)(C)[C@@H]2[C@@H](CC(=O)N(CCO)Cc3ccccc3)O[C@]3(C(=O)N(Cc4ccc(N5CCC5=O)cc4)c4ccccc43)[C@H]2C)cc1
upper range

State the class of the compound shown: CCOC(=O)C[C@H]1[C@H](OC(=O)c2ccc(-c3ccccc3)cc2)[C@@H](NC(=O)CC(C)C)c2cc(OCCCO)ccc2N1C(=O)Cc1ccc(OC)cc1
upper range

State the class of the compound shown: C=CC[C@@]12N=C(c3ccc(OCCCO)cc3)O[C@@H]1c1ccccc1N(Cc1ccccc1)C2=O
upper range

State the class of the compound shown: NC(=O)NCC#Cc1ccc2c(c1)[C@]1(C(=O)N2)[C@H](C(=O)Nc2nc3ccccc3s2)[C@H]2C(=O)O[C@H](c3ccccc3)[C@H](c3ccccc3)N2[C@@H]1c1ccc(OCCO)cc1
middle range

State the class of the compound shown: COc1ccc([Si](C)(C)[C@H]2[C@H](CCO)O[C@@]3(C(=O)N(Cc4ccc(N5CCOC5=O)cc4)c4ccccc43)[C@@H]2C)cc1
lower range

State the class of the compound shown: CCCCC(O)C1C=CC2C(=O)N(C)C(=O)C2N1Nc1ccccc1 (centres undefined)
middle range

State the class of the compound shown: CCOC(=O)C1=CCC(c2cc3ccccc3[nH]2)N(S(=O)(=O)c2ccccc2[N+](=O)[O-])C1 (centres undefined)
lower range

State the class of the compound shown: CC#CCO[Si](C#CCCCCCC)(C(C)C)C(C)C
upper range

State the class of the compound shown: Cc1ccc(S[C@]2(C(=O)NCCCN(C)C)CC(=O)N(Cc3ccccc3Cl)[C@@H]2c2ccc(CO)cc2I)cc1
upper range
